MIC values by entry
# Test system: Haemophilus influenzae RD
# Protocol details: broth micro-dilution MIC
# Format: cell-based
# Protocol conditions: Haemophilus influenzae RD
Test readout: MIC

{"Compound": "CNC(CC(C)C)C(=O)NC1C(=O)NC(CC(N)=O)C(=O)NC2C(=O)NC3C(=O)NC(C(=O)NC(C(=O)O)c4cc(O)cc(O)c4-c4cc3ccc4O)C(OC3CC(C)(NCc4ccc(SC)cc4)C(O)C(C)O3)c3ccc(c(Cl)c3)Oc3cc2cc(c3OC2OC(CO)C(O)C(O)C2OC2CC(C)(NCc3ccc(SC)cc3)C(O)C(C)O2)Oc2ccc(cc2Cl)C1O (stereo not drawn)", "Recorded measurement": "> 64 µg/mL"}
{"Compound": "CC(C)CC(C(=O)NC1C(=O)NC(CC(N)=O)C(=O)NC2C(=O)NC3C(=O)NC(C(=O)NC(C(=O)O)c4cc(O)cc(O)c4-c4cc3ccc4O)C(OC3CC(C)(N)C(O)C(C)O3)c3ccc(c(Cl)c3)Oc3cc2cc(c3OC2OC(CO)C(O)C(O)C2OC2CC(C)(NCc3ccc(-c4ccccc4)cc3)C(O)C(C)O2)Oc2ccc(cc2Cl)C1O)N(C)Cc1ccc(-c2ccccc2)cc1 (stereo not drawn)", "Recorded measurement": "> 64 µg/mL"}
{"Compound": "CC(C)CC(C(=O)NC1C(=O)NC(CC(N)=O)C(=O)NC2C(=O)NC3C(=O)NC(C(=O)NC(C(=O)O)c4cc(O)cc(O)c4-c4cc3ccc4O)C(OC3CC(C)(N)C(O)C(C)O3)c3ccc(c(Cl)c3)Oc3cc2cc(c3OC2OC(CO)C(O)C(O)C2OC2CC(C)(NCc3ccc4c(c3)OCO4)C(O)C(C)O2)Oc2ccc(cc2Cl)C1O)N(C)Cc1ccc2c(c1)OCO2 (stereo not drawn)", "Recorded measurement": "> 64 µg/mL"}
